# EXPERIMENTAL PROTOCOL: Cmax in BALB/c mouse at 10 mg/kg, po measured upto 4 hrs by mS-HPLC analysis
# Assay type: ADME, organism-based
# Parameters: time < 4 hrs, dose 10 mg/kg, route po
# APPLIED CONDITIONS: in vivo
PROPERTY NAME: Cmax (ng/g)
Only the number, expressed in ng/g, is required.

In: So what's the measured Cmax for this one? C=C(C)[C@@H]1CCC(C)=C[C@H]1c1c(O)cc(C(C)n2nccn2)cc1O (some centres not stated)
Out: 175

In: So what's the measured Cmax for this one? C=C(C)[C@@H]1CCC(C)=C[C@H]1c1c(O)cc(CCCCC)cc1O [CANNABIDIOL]
Out: 98.1

Where these numbers come from: ChEMBL document CHEMBL5360639
